Source listed as patent US20100234435A1.

Listed here are molecules together with their documented half-life.
assay: Terminal half life and clearance from blood samples; format: in vivo, CD1 mice; settings: CD1, mouse, oral
Counter-ions that a name gives are not always drawn.
Reply with the number, then its unit.

CC(C)Cc1ccc(-c2nc(-c3ccc([C@@H](C)N[C@H]4C[C@@H](C(=O)O)C4)cc3)no2)cc1 : 5.2 h

Kindly review the next molecule as well.
Q: Item under review: CC(C)Cc1ccc(-c2nc(-c3ccc([C@H](C)N[C@H]4C[C@@H](C(=O)O)C4)cc3)no2)cc1 [hydrochloride salt] . Reported half-life?
Result: 6.7 h

* * *

Listed here are compounds together with their documented IC50.
target: S1P3 (Homo sapiens)
Sequence (Q99500 whole entry): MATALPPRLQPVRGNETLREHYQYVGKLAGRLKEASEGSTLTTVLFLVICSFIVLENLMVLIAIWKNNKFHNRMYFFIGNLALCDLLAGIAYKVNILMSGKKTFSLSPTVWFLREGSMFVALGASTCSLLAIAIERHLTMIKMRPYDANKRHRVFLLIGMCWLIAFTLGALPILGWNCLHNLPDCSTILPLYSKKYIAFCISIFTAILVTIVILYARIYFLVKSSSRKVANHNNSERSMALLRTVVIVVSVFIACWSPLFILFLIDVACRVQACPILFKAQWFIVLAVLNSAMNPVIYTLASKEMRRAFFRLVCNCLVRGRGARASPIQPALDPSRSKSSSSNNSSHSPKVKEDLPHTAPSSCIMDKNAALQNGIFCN
Structures can show the parent of a compound that is named as a salt.

Examples with their reported IC50 follow.
CC(C)Cc1ccc(-c2nc(-c3ccc([C@H](C)N[C@H]4C[C@@H](C(=O)O)C4)cc3)no2)cc1 [hydrochloride salt] : > 1000 nM
CCCCCCCCCCCCC/C=C/[C@@H](O)[C@@H](N)COP(=O)(O)O [Example S1P, sphingosine-1-phosphate, reference compound] : 7.1 nM

Kindly review the next compound as well.
Q: Item under review: `CC(C)Cc1ccc(-c2nc(-c3ccc([C@@H](C)N[C@H]4C[C@H](C(=O)O)C4)cc3)no2)cc1` . Reported IC50?
Result: > 1000 nM

* * *

Listed here are compounds together with their documented pKi.
molecular target: S1P1 (Homo sapiens, UniProt P21453)
Sequence (P21453 whole entry): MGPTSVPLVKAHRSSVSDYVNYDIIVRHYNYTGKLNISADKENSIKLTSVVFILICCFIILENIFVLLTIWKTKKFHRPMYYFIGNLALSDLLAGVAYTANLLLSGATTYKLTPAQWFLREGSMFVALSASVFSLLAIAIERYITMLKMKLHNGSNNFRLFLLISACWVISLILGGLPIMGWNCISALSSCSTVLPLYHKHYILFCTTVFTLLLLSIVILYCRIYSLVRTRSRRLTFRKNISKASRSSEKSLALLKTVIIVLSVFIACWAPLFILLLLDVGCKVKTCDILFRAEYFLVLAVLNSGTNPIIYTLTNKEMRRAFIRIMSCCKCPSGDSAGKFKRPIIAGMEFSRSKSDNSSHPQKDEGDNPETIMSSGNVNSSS
Where a name gives a salt, the structure may show the parent alone.
Interpret pKi as the negative base-10 log of the concentration measured in mol/L.

CCCCCCCCCCCCC/C=C/[C@@H](O)[C@@H](N)COP(=O)(O)O [Example S1P, sphingosine-1-phosphate, reference compound] : 9.80

Kindly review the next compound as well.
Q: Item under review: CC(C)Cc1ccc(-c2nc(-c3ccc([C@H](C)N[C@H]4C[C@@H](C(=O)O)C4)cc3)no2)cc1 [hydrochloride salt] . Reported pKi?
Result: 8.57
